Source: PubChem BioAssay (NCI)

tested on: TK-10 renal; test: NCI tumour cell line growth inhibition, 48 h
Measured log10 of TGI, listed per entry for reference.
parameter: log10 of TGI (log10 of the value in µM)

{"columns": ["compound", "study system", "log10 of TGI"],
 "data": [
  ["CCCCCCCCCc1cc[n+](CC(=O)c2ccc([N+](=O)[O-])cc2)cc1", "TK-10 renal", 0.46],
  ["Cc1ccc2c(c1)C(=O)N1CCC[C@H]1C=N2", "TK-10 renal", 1.93],
  ["CC1=CCC2C3(C)CCC2(C(C)C)C1C3 (stereo not drawn) (tested in a mixture with another compound)", "TK-10 renal", 1.90],
  ["O=C(/C=C/C=C/c1c(C2CC2)nc2ccccc2c1-c1ccc(F)cc1)c1cccs1", "TK-10 renal", 1.52],
  ["O=C1C=CC2=[N+]([O-])C(c3ccccc3)(c3ccccc3)C(=Nc3ccccc3)C2=C1", "TK-10 renal", 0.51],
  ["O=c1cc(-c2ccccc2)oc2cc(O)cc(O)c12", "TK-10 renal", 1.86],
  ["Cc1cc(O)c(C2=NN(c3ccc(S(N)(=O)=O)cc3)C(c3ccc(N(C)C)cc3)C2)c(C)c1Cl (stereo not drawn)", "TK-10 renal", 1.63],
  ["Nc1ccccc1NC(=O)c1ccc(CCCC(=O)Nc2ccc(C3CC3N)cc2)cc1 (stereo not drawn)", "TK-10 renal", 1.43]
]}
